- SYSTEM_NAME: NAD-dependent protein deacetylase sirtuin-3, mitochondrial (Homo sapiens) (UniProt Q9NTG7)
- Sequence (whole entry): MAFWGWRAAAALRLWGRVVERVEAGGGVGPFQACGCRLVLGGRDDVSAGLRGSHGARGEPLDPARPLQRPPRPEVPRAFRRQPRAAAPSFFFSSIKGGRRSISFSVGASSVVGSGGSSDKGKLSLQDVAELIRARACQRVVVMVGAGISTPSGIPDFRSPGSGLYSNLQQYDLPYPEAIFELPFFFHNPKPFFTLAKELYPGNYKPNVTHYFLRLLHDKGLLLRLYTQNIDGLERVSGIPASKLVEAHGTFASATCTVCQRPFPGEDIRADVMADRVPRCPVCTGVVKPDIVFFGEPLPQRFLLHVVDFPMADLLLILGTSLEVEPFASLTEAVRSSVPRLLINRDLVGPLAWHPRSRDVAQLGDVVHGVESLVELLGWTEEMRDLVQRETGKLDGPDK
- METHOD: Substrate activity at human N-terminal His-tagged SIRT3 (122 to 391 residues) expressed in Escherichia coli at 0.5 uM measured after 2 hrs in presence of NAD+ and trypsin by fluorescence assay
*1 amine or outer side, *2 acyl side, *3 side chain or, on linkers, in order; H or OH if unused. Where a SMILES comes first, the peptide text is derived from it. The star is where a group is joined. AMC = Cc1cc(=O)oc2cc(N*)ccc12; Suc = O=C(CCC(=O)[*:2])[*:1]; Decanoyl = CCCCCCCCCC(=O)*
MEASURED_METRIC: Activity (RFU)

[
  {
    "COMPOUND": "CCCCCCCCCC(=O)NCCCC[C@H](NC(=O)[C@H](CC(=O)O)NC(=O)[C@@H](NC(=O)[C@H](CCC(=O)O)NC(C)=O)[C@@H](C)O)C(=O)Nc1ccc2c(C)cc(=O)oc2c1 (Ac-ETDK(Decanoyl)-{AMC})",
    "UNIT_TEXT": "RFU",
    "OBSERVED_RESULT": 0.51
  },
  {
    "COMPOUND": "CCCCCCCCCC(=O)NCCCC[C@H](NC(=O)[C@@H](NC(=O)[C@H](CO)NC(=O)[C@H](CO)NC(C)=O)[C@@H](C)CC)C(=O)Nc1ccc2c(C)cc(=O)oc2c1 (Ac-SSIK(Decanoyl)-{AMC})",
    "UNIT_TEXT": "RFU",
    "OBSERVED_RESULT": 0.67
  },
  {
    "COMPOUND": "CC(=O)NCCCC[C@H](NC(=O)[C@H](CCCCN)NC(=O)[C@H](Cc1cnc[nH]1)NC(=O)[C@H](CCCNC(=N)N)NC(C)=O)C(=O)Nc1ccc2c(C)cc(=O)oc2c1 (Ac-RHKK(Ac)-{AMC})",
    "UNIT_TEXT": "RFU",
    "OBSERVED_RESULT": 0.28
  }
]

A. CC(=O)NCCCC[C@H](NC(=O)[C@H](CCCNC(=N)N)NC(=O)[C@H](CO)NC(=O)[C@H](CC(N)=O)NC(C)=O)C(=O)Nc1ccc2c(C)cc(=O)oc2c1 (Ac-NSRK(Ac)-{AMC})
B. CC(=O)N[C@@H](Cc1cnc[nH]1)C(=O)N[C@@H](Cc1ccccc1)C(=O)N[C@@H](CO)C(=O)N[C@@H](CCCCNC(=O)CCC(=O)O)C(=O)Nc1ccc2c(C)cc(=O)oc2c1 (Ac-HFSK(Suc)-{AMC})
Exam item: Which entry has a larger number for Activity, A or B ? # reply format: chosen label
Marked response: B
(B: 0.49 RFU, A: 0.34 RFU)

Recorded values, source ChEMBL document CHEMBL4680222.
